Tested on: HEK293T;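 note: lentiviral eGFP-IRES-mCherry reporter pool sorted by FACS 96 h post-transduction, gated on mCherry-high cells, Illumina read counts normalized per million, median across four biological replicates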
Experiment: median enrichment of reporter reads in eGFP-reduced (low/intermediate) vs eGFP-high sorted cells (eGFP-extension fusion abundance) (ratio); higher = stronger loss of eGFP-fusion protein abundance (more destabilising extension)
If the reported median enrichment equals or exceeds 6, assign 1.0. If not, assign 0.0.

> print(dat)
                                   substance  category.label
 1  GRRWCFRTLSHSLPSSALCHSQPFQQPRQPLLRPFPQPDTHSH [AMOTL2]             1.0
 2                 YPVLEGTGGIIFNDLLN [NXPE3]             0.0
 3                   YKPRDGGCLAMAGR [DMRTC2]             0.0
 4                       RGKTWKRPACLQ [RRM1]             0.0
 5     RKTWPENPQVLQRKTELGKGESWKDGAD [ABHD15]             0.0
 6  LSFRQFSSNGPFQGRPLPLRKSCDCILSDGNISMALLGYSA [HIST1H4B]             0.0
 7  QWRGEGRLGALGGWEMLASKRLTGREAGTCPQHKRQVYPGSL [BTBD18]             1.0
 8                       QLRILKRSHGKTS [NBN]             1.0
 9  LGGRCRKHLEQPQSHGAEGAGAAPVIGRGIPSVCSASCLLNKGLFLTHK [CUL9]             1.0
10                SILFHLILALHLLYISPE [CLRN3]             1.0
11         KEENKQNQPPHHRVLQQDMHTIGA [CDCA7L]             1.0
12                            RSGLFQ [IQCF1]             0.0
13                     QLYSTKIFKDWFLF [DIS3]             1.0
14  RRTACSDQRAQRPEDKSGGDSMGMGVGCLRERTHGLGRGERCMGITFARAAYLKVTVSSGTAGDRYLLLQEINYPENSTQPVT [LEXM]             1.0
15         RHRRTPGDFLYICRLRLFVTSKWDIV [TAF4]             1.0
16                     CGCQLGRKRETRP [CCND2]             0.0
17                      YTQKTNSIQSQ [ENDOD1]             0.0
18                QCDSQCNNIKISFYIII [ASNSD1]             0.0
19                WMLSRSWRFKKKCRMAV [OR52D1]             1.0
20       QCLCRIKCLLFYMHILKEKQRPEPRRG [RIOX2]             0.0
21                         IIIIIIIII [Ile09]             1.0
22  ESFHMIFCHIKHIVCLTVYRILKCSGCKTRDYLYAQNSYIFINEFNILFILVRAGQPFWVTQLIYQLIQIIEYIHNQADTS [PLS1]             1.0
23  WVLSRAVEVPVIPAGAAATQSGRQGGEHLSATETNHSLFAQHASSSVLHSSPGSLSGSSTESFCSLKCWDA [CGNL1]             1.0

The measured values listed here are drawn from the supplement of paper PMC11502859.
